- Target or system: T1, Anti-CD28 Fab (SEQ ID NOs: 696, 697)
- T1 construct: Biotinylated and captured on neutravidin coated plates in the phage ELISA
- T1 sequence (VH, as listed by the source, chain 1 of 2): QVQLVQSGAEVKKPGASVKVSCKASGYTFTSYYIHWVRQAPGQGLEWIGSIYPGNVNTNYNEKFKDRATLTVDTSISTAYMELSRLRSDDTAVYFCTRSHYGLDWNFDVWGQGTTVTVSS
- T1 sequence (VL, as listed by the source, chain 2 of 2): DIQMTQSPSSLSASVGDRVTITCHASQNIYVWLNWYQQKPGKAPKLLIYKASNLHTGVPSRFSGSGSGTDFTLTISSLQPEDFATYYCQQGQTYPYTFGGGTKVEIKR
- Assay name: phage binding ELISA on captured anti-CD28 Fab; competitor: CD28 antigen pre-incubated in the well;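 also: clonal phage supernatants added briefly to wells preblocked with or without CD28, bound phage detected through an HRP-linked anti-M13 antibody, wells with blocking buffer alone as comparison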
Each entry below carries its reported Anti-CD28 Fab signal in the presence of CD28.

The cases that follow already have their Anti-CD28 Fab signal in the presence of CD28 on record.
SCKAGAPYYWPGCF (tested as crude phage supernatant) [Phage-1535]	0.08
SCSAGAMYPWPMCL (tested as crude phage supernatant) [Phage-1540]	0.06
SCSAGAAWPWPWCL (tested as crude phage supernatant) [Phage-1532]	0.08
TCSAGATYSWPFCF (tested as crude phage supernatant) [Phage-1534]	0.07
LCSAGAMWQWPTCL (tested as crude phage supernatant) [Phage-1544]	0.05
LCAEGADYPWPMCL (tested as crude phage supernatant) [Phage-1545]	0.08

# Anti-CD28 Fab signal in the presence of CD28 lookup, item TCAAGATWDWPLCF (tested as crude phage supernatant) [Phage-1546] 0.06

Look up Anti-CD28 Fab signal in the presence of CD28 for this binder: TCAAGASWEWPLCF (tested as crude phage supernatant) [Phage-1541] 0.08
